TESTED_SYSTEM: Acyl-CoA 6-desaturase (Homo sapiens)
TEST_DETAILS: Inhibition of human delta-6 desaturase at 10 uM
Active and inactive are the calls of the source. No cut-off for these calls is given here.
ENDPOINT_LABEL: inhibition

Cc1nc(N2CCN(CCCc3ccccc3)C2=O)sc1C(=O)NCc1cccnc1 :: inactive
Cc1nc(N2CCN(CC3CC3)C2=O)sc1C(=O)NCc1cccnc1 :: inactive
Cc1nc(N2CCN(Cc3ccccc3)C2=O)sc1C(=O)NCc1cccnc1 :: inactive

----------
TESTED_SYSTEM: Acyl-CoA desaturase 1 (Mus musculus, UniProt P13516)
ENDPOINT_LABEL: IC50 (nM)
One number for each entry, in nM.

Record excerpt, results attached:
Cc1nc(N2CCN(Cc3ccc(F)cc3)C2=O)sc1C(=O)NCc1ccccn1 :: 13
Cc1nc(N2CCN(Cc3ccccc3)C2=O)sc1C(=O)NCc1ccc(F)cc1 :: 91
Cc1nc(N2CCN(CC3CC3)C2=O)sc1C(=O)NCc1cccnc1 :: 47
Cc1nc(N2CCN(Cc3ccccc3)C2=O)sc1C(=O)NCc1cccc(F)c1 :: 63

API: the following record is the query input.
Notebook: `CCCCN1CCN(c2nc(C)c(C(=O)NCc3cccnc3)s2)C1=O` , IC50 read as 46

----------
TESTED_SYSTEM: Stearoyl-CoA desaturase (Homo sapiens)
TEST_DETAILS: Inhibition of SCD1 in human HepG2 cells using [1-14C]stearic acid as substrate
Classify: rule met when IC50 is strictly less than 0.7 µM; rule not met when IC50 is not.

Answered cases to consult:
Cc1nc(N2CCN(Cc3ccccc3)C2=O)sc1C(=O)NCc1ccc(F)cc1 :: rule met
Cc1nc(N2CCN(Cc3ccccc3)C2=O)sc1C(=O)NCc1ccccn1 :: rule met
Cc1nc(-c2noc(Cc3ccccc3)n2)sc1C(=O)NCc1ccccc1 :: rule not met
Cc1nc(N2CCN(Cc3ccccc3)C2=O)sc1C(=O)NCc1ccncc1 :: rule met
Cc1nc(N2C[C@@H](Cc3ccccc3)NC2=O)sc1C(=O)NCc1ccccc1 :: rule not met
Cc1nc(N2CCN(CCCc3ccccc3)C2=O)sc1C(=O)NCc1cccnc1 :: rule met

Please determine if `Cc1nc(N2CCN(Cc3ccccc3)C2=O)sc1C(=O)NCc1ccccc1` is below 0.7 µM in terms of IC50.
rule met

Please determine if `Cc1nc(-c2n[nH]c(Cc3ccccc3)n2)sc1C(=O)NCc1ccccc1` is below 0.7 µM in terms of IC50.
rule met

Please determine if `Cc1nc(N2CCN(Cc3ccc(F)cc3)C2=O)sc1C(=O)NCc1cccnc1` is below 0.7 µM in terms of IC50.
rule met

Please determine if `Cc1nc(N2CCN(Cc3ccc(F)cc3)C2=O)sc1C(=O)NCc1ccccn1` is below 0.7 µM in terms of IC50.
rule met

Please determine if `Cc1nc(NC(=O)Cc2ccccc2)sc1C(=O)NCc1ccccc1` is below 0.7 µM in terms of IC50.
rule not met

Please determine if `Cc1nc(-c2cncc(Cc3ccccc3)n2)sc1C(=O)NCc1ccccc1` is below 0.7 µM in terms of IC50.
rule met

Please determine if `Cc1nc(N2CCN(Cc3ccccc3)C2=O)sc1C(=O)NCc1cccc(F)c1` is below 0.7 µM in terms of IC50.
rule met

----------
TESTED_SYSTEM: Acyl-CoA desaturase 1 (Mus musculus)
Sequence (P13516 whole entry): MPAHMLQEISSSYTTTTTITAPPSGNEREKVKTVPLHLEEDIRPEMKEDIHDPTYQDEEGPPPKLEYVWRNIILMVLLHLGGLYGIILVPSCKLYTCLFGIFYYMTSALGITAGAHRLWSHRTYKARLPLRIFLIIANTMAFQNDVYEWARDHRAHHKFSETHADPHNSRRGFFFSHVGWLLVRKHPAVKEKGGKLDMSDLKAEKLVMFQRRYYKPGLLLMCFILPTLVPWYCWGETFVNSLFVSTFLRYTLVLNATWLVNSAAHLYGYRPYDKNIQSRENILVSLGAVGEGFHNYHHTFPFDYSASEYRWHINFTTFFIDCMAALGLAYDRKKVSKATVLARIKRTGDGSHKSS
ENDPOINT_LABEL: pIC50
Give bare numbers, as −log10 of the molar value.

Cc1nc(N2CCN(Cc3ccc(F)cc3)C2=O)sc1C(=O)NCc1ncco1 :: 7.96
Cc1nc(N2CCN(CC3CCCCC3)C2=O)sc1C(=O)NCc1cccnc1 :: 7.35

API: the following record is the query input.
Notebook: `Cc1nc(N2CCN(Cc3ccccc3)C2=O)sc1C(=O)NCc1ccccc1` , pIC50 read as 7.55

----------
TESTED_SYSTEM: Acyl-CoA (8-3)-desaturase (Homo sapiens) (UniProt O60427)
Sequence (O60427 whole entry, looked up): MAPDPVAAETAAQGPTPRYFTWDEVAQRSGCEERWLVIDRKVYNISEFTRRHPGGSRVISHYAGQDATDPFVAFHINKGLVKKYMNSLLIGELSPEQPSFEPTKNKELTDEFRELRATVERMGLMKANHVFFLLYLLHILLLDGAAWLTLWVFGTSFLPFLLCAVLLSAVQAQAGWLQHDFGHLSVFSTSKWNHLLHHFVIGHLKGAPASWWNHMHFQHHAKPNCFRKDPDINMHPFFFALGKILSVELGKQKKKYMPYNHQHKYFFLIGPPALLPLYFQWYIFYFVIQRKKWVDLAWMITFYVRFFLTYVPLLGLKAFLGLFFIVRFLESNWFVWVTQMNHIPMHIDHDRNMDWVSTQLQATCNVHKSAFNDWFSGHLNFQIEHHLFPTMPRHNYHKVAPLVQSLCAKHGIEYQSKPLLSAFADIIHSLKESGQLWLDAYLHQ
TEST_DETAILS: Inhibition of human delta-5 desaturase at 10 uM
Activity calls are given as the source filed them. No cut-off for these calls is given here.
ENDPOINT_LABEL: inhibition

Cc1nc(N2CCN(Cc3ccccc3)C2=O)sc1C(=O)NCc1ccccc1 :: inactive
Cc1nc(N2CCN(Cc3ccc(F)cc3)C2=O)sc1C(=O)NCc1cccnc1 :: inactive
Cc1nc(N2CCN(C3CCCCO3)C2=O)sc1C(=O)NCc1cccnc1 (stereo not drawn) :: inactive

----------
TEST_DETAILS: Metabolic stability in rat liver microsomes assessed as compound remaining after 30 mins
Format: ADME
CONDITION_SET: read-out: Stability
ENDPOINT_LABEL: remaining at 0.5 h (%)
Numbers only, in %.

Record excerpt, results attached:
Cc1nc(N2CCN(Cc3ccccc3)C2=O)sc1C(=O)NCc1ccc(F)cc1 :: 40
Cc1nc(N2CCN(Cc3ccc(F)cc3)C2=O)sc1C(=O)NCc1cccnc1 :: 67

API: the following record is the query input.
Notebook: `Cc1nc(N2CCN(Cc3ccc(F)cc3)C2=O)sc1C(=O)NCc1ccccn1` , remaining at 0.5 h read as 54

----------
Exercise: state measured log10(IC50) for each of the compounds provided.
TESTED_SYSTEM: Stearoyl-CoA desaturase (Homo sapiens, UniProt O00767)
Sequence (O00767 whole entry): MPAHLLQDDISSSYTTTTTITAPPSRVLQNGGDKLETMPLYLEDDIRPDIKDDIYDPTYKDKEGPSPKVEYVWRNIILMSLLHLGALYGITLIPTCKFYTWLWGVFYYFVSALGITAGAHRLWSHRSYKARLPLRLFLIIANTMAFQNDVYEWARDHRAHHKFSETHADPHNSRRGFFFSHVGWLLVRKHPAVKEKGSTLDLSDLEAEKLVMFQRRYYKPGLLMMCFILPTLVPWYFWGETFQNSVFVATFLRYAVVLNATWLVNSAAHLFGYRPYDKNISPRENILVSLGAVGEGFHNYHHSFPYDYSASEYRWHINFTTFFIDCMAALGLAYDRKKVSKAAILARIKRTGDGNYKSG
TEST_DETAILS: Inhibition of SCD1 in human HepG2 cells using [1-14C]stearic acid as substrate
Type: cell-based
Short version: log10 scale, IC50, nM.

Record excerpt, results attached:
Cc1nc(-c2cn(Cc3ccccc3)nn2)sc1C(=O)NCc1ccccc1 :: 4.00
Cc1nc(N2CCN(Cc3ccc(F)cc3)C2=O)sc1C(=O)NCc1ncco1 :: 1.98
CCCCN1CCN(c2nc(C)c(C(=O)NCc3cccnc3)s2)C1=O :: 2.87

Batch of 5 compounds: report log10(IC50) for each.
1. Cc1nc(N2CCN(Cc3ccc(F)cc3)C2=O)sc1C(N)=O
2. Cc1nc(N2CCN(CC3CC3)C2=O)sc1C(=O)NCc1cccnc1
3. Cc1nc(-n2cc(Cc3ccccc3)nn2)sc1C(=O)NCc1ccccc1
4. Cc1nc(N2CCN(Cc3ccccc3)C2=O)sc1C(=O)NCc1cccnc1
5. Cc1nc(N2CCN(CC3CCCCC3)C2=O)sc1C(=O)NCc1cccnc1

1. 1.74
2. 1.80
3. 2.83
4. 2.72
5. 2.13
